From: ChEMBL document CHEMBL5375989

- METHOD SUMMARY: Selectivity index, ratio of IC50 for mouse L929 cells to IC50 for human A549 cells
- Type: toxicity
PARAMETER: Ratio IC50
Give your answer as a number; write no unit.

The following molecules have reported results that may help.
SMILES NOTATION	Ratio IC50
Cn1c[n+](C)c2c1C(=O)c1ccccc1C2=O.F[P-](F)(F)(F)(F)F	10.6
Cn1c[n+](C)c2c1C(=O)c1ccccc1C2=O.O=S(=O)([O-])C(F)(F)F	28.6
CS(=O)(=O)[O-].Cn1c[n+](C)c2c1C(=O)c1ccccc1C2=O	1.8
Cn1c[n+](C)c2c1C(=O)c1ccccc1C2=O.[I-]	117

### Prompt Would you kindly share the measured Ratio IC50 for Cc1ccc(S(=O)(=O)[O-])cc1.Cn1c[n+](C)c2c1C(=O)c1ccccc1C2=O ?
### Response 1.9

----------
- METHOD SUMMARY: Antiproliferative activity against mouse L929 cells assessed as inhibition of cell growth measured after 48 hrs by MTT assay
- Assay type: toxicity, cell-based
- CONDITIONS: mouse, L929 cells
The following compounds are shown together with reported IC50 at 48 h values.
Kindly provide the numeric value in µM only, without the unit symbol.

In the examples that follow, each entry is paired with its recorded IC50 at 48 h.
SMILES NOTATION	VALUE MEASURED
Cc1n(CC2OCCO2)c2c([n+]1C)C(=O)c1cc3ccccc3cc1C2=O	79.9
Cn1c2c([n+](C)c1-c1ccccc1F)C(=O)c1cc3ccccc3cc1C2=O	10.7
C[n+]1cn(Cc2ccccc2F)c2c1C(=O)c1cc3ccccc3cc1C2=O	17.7
CCn1c[n+](C)c2c1C(=O)c1cc3ccccc3cc1C2=O	49.3
CCn1c[n+](CC)c2c1C(=O)c1cc3ccccc3cc1C2=O	63.9
CC(C)n1c[n+](C(C)C)c2c1C(=O)c1ccccc1C2=O	18.6
CC(C)=CCn1c2c([n+](C)c1C)C(=O)c1cc3ccccc3cc1C2=O	5.52
CC1=C(C)C(=O)c2c(n(C)c[n+]2C)C1=O	119

### Prompt State the recorded IC50 at 48 h for this entry: Cc1n(Cc2cccc(F)c2)c2c([n+]1C)C(=O)c1cc3ccccc3cc1C2=O
### Response 45.9

### Prompt For CC(C)Cn1c[n+](C)c2c1C(=O)c1cc3ccccc3cc1C2=O , what is its reported IC50 at 48 h?
### Response 87.4

----------
- Tested on: A549
- METHOD SUMMARY: cells
- CONDITIONS: Homo sapiens, A549, 48 h
- Description: Antiproliferative activity against human A549 cells assessed as inhibition of cell growth measured after 48 hrs by MTT assay
Label rule met when IC50 < 400 nM; otherwise rule not met.

Example results:
SMILES NOTATION	GROUP
COc1ccc(Cn2c[n+](C)c3c2C(=O)c2cc4ccccc4cc2C3=O)cc1	rule not met
COCCn1c[n+](CCOC)c2c1C(=O)c1ccccc1C2=O	rule not met
CCc1n(C)c2c([n+]1C)C(=O)c1cc3ccccc3cc1C2=O	rule met

### Prompt Regarding CCn1c[n+](CC)c2ccccc21 , kindly confirm whether its IC50 is beneath 400 nM.
### Response rule not met

### Prompt Hi there! Is IC50 for Cc1n(C(C)C)c2c([n+]1C)C(=O)c1cc3ccccc3cc1C2=O below 400 nM, do you know?
### Response rule met

### Prompt Strictly below 400 nM: is that where IC50 of CC(C)n1c[n+](C)c2c1C(=O)c1cc3ccccc3cc1C2=O sits?
### Response rule not met
